# System: Phakopsora pachyrhizi (F129L)
# protocol-summary: Protective control of soybean rust on soybeans (PHAKPA P2)
# Type: in vivo
# conditions-used: protective P2, 16 ppm, soybean rust F129L
readout: % PHAKPA (F129L) Disease level P2 at 16 ppm
Output should be the measured figure followed by the unit it is expressed in.

// below: answered compounds
compound-string: CO/N=C(/C(=O)OC)c1cccc(C)c1CO/N=C(\C)c1cccc(C#CC(F)(F)F)c1
system-under-test: Phakopsora pachyrhizi (F129L)
assay-value: 28%
--
compound-string: CO/C=C(/C(=O)OC)c1cccc(C)c1CO/N=C(\C)c1ccc(Br)cc1C(F)(F)F
system-under-test: Phakopsora pachyrhizi (F129L)
assay-value: 1%
--
compound-string: CNC(=O)/C(=N/OC)c1cccc(C)c1CO/N=C(\C)c1ccccc1OCOC
system-under-test: Phakopsora pachyrhizi (F129L)
assay-value: 40%

Attention now shifts to the item below.
[ask] Provide measured % PHAKPA (F129L) Disease level P2 at 16 ppm value, entry: CO/N=C(/C(=O)OC)c1cccc(C)c1CO/N=C(\C)c1ccc(Cl)c(Cl)c1
[reply] 18%
